# Read-out: Interleukin-8 (IL8), CXCL8 (gene 3576)
# EXPERIMENTAL PROTOCOL: BSK_SAg_IL8: BioMAP Diversity Plus: SAg Assay for Interleukin-8 (IL8) Biomarker Activity (AID 2283094)
# CONDITION SUMMARY: primary human HUVEC with PBMC; actives raise or lower the signal
Active and inactive are the calls of the source. Rule for the calls: active = hit-call score of the fitted dose curve at least 0.9, where 1 is the maximum; inactive = score below 0.9.
Hi! Could you answer with just one of these? T (active), F (inactive)

*Q* # fetch the recorded call for Clc1cccc(Cl)c1 here
*A* F

*Q* # fetch the recorded call for Oc1ccc(Cc2ccc(O)cc2)cc1 here
*A* F

*Q* # fetch the recorded call for COc1ccccc1N here
*A* F

*Q* # fetch the recorded call for OCCN(CCO)CCO here
*A* F

*Q* # fetch the recorded call for O=[N+]([O-])c1cccc2ccccc12 here
*A* F

###

# Read-out: Caspase-3 (Homo sapiens)
# EXPERIMENTAL PROTOCOL: LTEA_HepaRG_CASP3: Life Technologies and Expression Analysis (LTEA) Assay for cysteine-aspartic acid protease (CASP3) using HepaRG (AID 2283477)
# CONDITION SUMMARY: mRNA level, 48 h; actives raise or lower the signal
# Procedure: LTEA_HepaRG is a cell based, multiplexed-readout assay that uses HepaRG, a human liver cell line, with measurements taken at 48 hours after chemical dosing on a 96-well plate.LTEA_HepaRG_CASP3 is one of 102 assay component(s) measured in the LTEA HepaRG cell culture assay. It is a marker of Cell proliferation, survival, death.Data from the assay component LTEA_HepaRG_CASP3 was analyzed into 1 endpoint. […]
Activity calls are given as the source filed them. The calls were made as follows: active = hit-call score of the fitted dose curve at least 0.9, where 1 is the maximum; inactive = score below 0.9.
Hi! Could you answer with just one of these? active, inactive

Previously resolved entries follow.
- RECORD SMILES: "Oc1cc(Cl)c(Cl)cc1Cl"
  GROUP LABEL: "inactive"
- RECORD SMILES: "N#Cc1cccnc1"
  GROUP LABEL: "inactive"
- RECORD SMILES: "CC(C)(C)c1ccccc1O"
  GROUP LABEL: "inactive"
- RECORD SMILES: "Clc1cccc(Cl)c1Cl"
  GROUP LABEL: "inactive"

*Q* # fetch the recorded call for O=C(O)C1(c2ccc3c(c2)OC[C@H](Cc2ccc(-c4ccccc4)cc2)[C@H]3O)CCCC1 here
*A* active

###

# Read-out: Matrix Metallopeptidase 9 (MMP9), MMP9 (gene 4318)
# EXPERIMENTAL PROTOCOL: BSK_KF3CT_MMP9: BioMAP Diversity Plus: KF3CT Assay for Matrix Metallopeptidase 9 (MMP9) Biomarker Activity (AID 2283074)
# CONDITION SUMMARY: primary human keratinocytes with fibroblasts; actives raise or lower the signal
Calls of active or inactive are those of the source. How the source made its calls: active means hit-call score of the fitted dose curve at least 0.9, where 1 is the maximum; inactive means score below 0.9.
Hi! Could you answer with just one of these? active, inactive

- RECORD SMILES: "O=C(O)C1(c2ccc3c(c2)OC[C@H](Cc2ccc(-c4ccccc4)cc2)[C@H]3O)CCCC1"
  GROUP LABEL: "active"

*Q* # fetch the recorded call for CCCCOC(=O)COC(=O)c1ccccc1C(=O)OCCCC here
*A* inactive

*Q* # fetch the recorded call for O=S(=O)(c1ccc(Cl)cc1)c1cc(Cl)c(Cl)cc1Cl here
*A* active

*Q* # fetch the recorded call for Oc1cccc(-c2ccccc2)c1 here
*A* active

*Q* # fetch the recorded call for Cc1ccccc1OP(=O)(Oc1ccccc1)Oc1ccccc1 here
*A* active

###

# EXPERIMENTAL PROTOCOL: ATG_CMV_CIS: Attagene CIS-FACTORIAL HepG2 Assay for human CMV (Internal Marker) (AID 2282928);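 note: endpoint acts as a background internal control marker rather than a target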
# CONDITION SUMMARY: HepG2 CMV promoter reporter, transcription factor profiling; actives raise or lower the signal
Active and inactive are the calls of the source. Rule for the calls: active = hit-call score of the fitted dose curve at least 0.9, where 1 is the maximum; inactive = score below 0.9.
Hi! Could you answer with just one of these? true = active, false = inactive

- MOLECULE: "Nc1ccc(-c2ccccc2)cc1"
  GROUP LABEL: "false"
- MOLECULE: "O=C(N[C@H]1CN2CCC1CC2)c1ccc2c(c1)OCCO2"
  GROUP LABEL: "false"
- MOLECULE: "CC(O)(CS(=O)(=O)c1ccc(F)cc1)C(=O)Nc1ccc(C#N)c(C(F)(F)F)c1 (centres undefined)"
  GROUP LABEL: "false"
- MOLECULE: "Clc1ccc(C(Cl)(Cl)Cl)cn1"
  GROUP LABEL: "false"
- MOLECULE: "Clc1cnc(Oc2ccc(Oc3ncc(Cl)cc3Cl)cc2)c(Cl)c1"
  GROUP LABEL: "false"
- MOLECULE: "C[CH2][Hg][S]c1ccccc1C(=O)O"
  GROUP LABEL: "false"
- MOLECULE: "O=S(=O)(Oc1ccc(Cl)cc1)c1ccc(Cl)cc1"
  GROUP LABEL: "true"
- MOLECULE: "CC(C)(COCC1CO1)COCC1CO1 (centres undefined)"
  GROUP LABEL: "false"

*Q* # fetch the recorded call for COCCl here
*A* false

*Q* # fetch the recorded call for CCCCOC(=O)COC(=O)c1ccccc1C(=O)OCCCC here
*A* false

*Q* # fetch the recorded call for CC(C=O)Cc1ccc2c(c1)OCO2 (centres undefined) here
*A* false

*Q* # fetch the recorded call for CC(C)[C@@H](Nc1ccc(C(F)(F)F)cc1Cl)C(=O)OC(C#N)c1cccc(Oc2ccccc2)c1 (some centres undefined) here
*A* false

*Q* # fetch the recorded call for Oc1ccc(Cc2ccc(O)cc2)cc1 here
*A* true

*Q* # fetch the recorded call for O=C1C[C@@H]2OCC=C3CN4CC[C@]56c7ccccc7N1[C@H]5[C@H]2[C@H]3C[C@H]46 here
*A* false

*Q* # fetch the recorded call for CCOP(=O)(OCC)SCCSCC here
*A* false

###

# Read-out: CD40, CD40 (gene 958)
# EXPERIMENTAL PROTOCOL: BSK_SAg_CD40: BioMAP Diversity Plus: SAg Assay for CD40 Biomarker Activity (AID 2283088)
# CONDITION SUMMARY: primary human HUVEC with PBMC; actives raise or lower the signal
Activity calls are given as the source filed them. Rule for the calls: active = hit-call score of the fitted dose curve at least 0.9, where 1 is the maximum; inactive = score below 0.9.
Hi! Could you answer with just one of these? T (active), F (inactive)

*Q* # fetch the recorded call for O=C(N[C@H]1CN2CCC1CC2)c1ccc2c(c1)OCCO2 here
*A* F

*Q* # fetch the recorded call for CCOP(=S)(OCC)SCS(=O)(=O)C(C)(C)C here
*A* F

*Q* # fetch the recorded call for NC(=O)CCl here
*A* F

*Q* # fetch the recorded call for Nc1c(Oc2ccccc2)cc(O)c2c1C(=O)c1ccccc1C2=O here
*A* T

*Q* # fetch the recorded call for CCOC(=O)CC(=O)CCl here
*A* T

*Q* # fetch the recorded call for C=CC(Cl)CCl (stereo unspecified) here
*A* T

###

# EXPERIMENTAL PROTOCOL: ATG_GLI_CIS: Attagene CIS-FACTORIAL HepG2 Assay for human Zinc Finger Protein GLI1 (AID 2282945)
# CONDITION SUMMARY: HepG2, Attagene cis-factorial reporter mRNA, GLI element; actives raise or lower the signal
Calls of active or inactive are those of the source. Rule for the calls: active = hit-call score of the fitted dose curve at least 0.9, where 1 is the maximum; inactive = score below 0.9.
Hi! Could you answer with just one of these? active, inactive

- MOLECULE: "Cc1cccc(N=Nc2ccc(N(C)C)cc2)c1"
  GROUP LABEL: "inactive"
- MOLECULE: "CCC[CH2][Sn]([CH2]CCC)([CH2]CCC)[CH2]CCC"
  GROUP LABEL: "inactive"
- MOLECULE: "CC(=O)CN(CC(C)=O)N=O"
  GROUP LABEL: "inactive"

*Q* # fetch the recorded call for N#Cc1ccccc1N here
*A* inactive

*Q* # fetch the recorded call for ClCCN1CCOCC1 here
*A* inactive

*Q* # fetch the recorded call for OC[C@@H](O)[C@H]1O[C@@H]2O[C@H](C(Cl)(Cl)Cl)O[C@@H]2[C@H]1O here
*A* inactive

*Q* # fetch the recorded call for Cc1cc(Cl)ccc1N here
*A* inactive

*Q* # fetch the recorded call for O=C(O)COc1ccc(Cl)cc1 here
*A* inactive

*Q* # fetch the recorded call for C=CC(=O)OCC(COC(=O)C=C)(COC(=O)C=C)COC(=O)C=C here
*A* inactive

*Q* # fetch the recorded call for Oc1cc(Cl)c(Cl)cc1Cl here
*A* inactive

*Q* # fetch the recorded call for CN(N=O)C(N)=O here
*A* inactive

*Q* # fetch the recorded call for Clc1cc(C(Cl)(Cl)Cl)cnc1Cl here
*A* inactive

###

# Read-out: CD40, CD40 (gene 958)
# EXPERIMENTAL PROTOCOL: BSK_SAg_CD40: BioMAP Diversity Plus: SAg Assay for CD40 Biomarker Activity (AID 2283088)
# CONDITION SUMMARY: primary human HUVEC with PBMC; actives raise or lower the signal
Calls of active or inactive are those of the source. Rule for the calls: active = hit-call score of the fitted dose curve at least 0.9, where 1 is the maximum; inactive = score below 0.9.
Hi! Could you answer with just one of these? yes (1) (active), no (0) (inactive)

Previously resolved entries follow.
- MOLECULE: "Cc1ccccc1OP(=O)(Oc1ccccc1C)Oc1ccccc1C"
  GROUP LABEL: "yes (1)"
- MOLECULE: "O=C(O)COc1cc(Cl)c(Cl)cc1Cl"
  GROUP LABEL: "no (0)"
- MOLECULE: "CCCCN(CCCC)C(=S)[S-].CCCCN(CCCC)C(=S)[S-].[Ni+2]"
  GROUP LABEL: "no (0)"

*Q* # fetch the recorded call for Oc1c(Br)cc(Br)cc1Br here
*A* yes (1)

*Q* # fetch the recorded call for Cc1ccccc1OP(=O)(Oc1ccccc1)Oc1ccccc1 here
*A* yes (1)

*Q* # fetch the recorded call for Oc1cccc(-c2ccccc2)c1 here
*A* yes (1)
